All values here come from paper PMC13352219.

Target: Amaranthus palmeri cytosolic GS1.1 R311Q
Assay: GS enzyme inhibition assay, GS1.1 R311Q
Conditions: read-out: Glufosinate‐ammonium IC50
pIC50: −log10 of the molar value.
property.label: pIC50

Would you kindly share the measured pIC50 for CP(=O)(O)CCC(N)C(=O)O (stereo not shown) [Glufosinate‐ammonium] ?
< 2.00

###

Biological target: Amaranthus palmeri cytosolic GS1.1 E131Q
Experiment: GS enzyme inhibition assay, GS1.1 E131Q
Assay type: biochemical
Conditions: read-out: Glufosinate‐ammonium IC50
property.label: IC50

Would you kindly share the measured IC50 for CP(=O)(O)CCC(N)C(=O)O (stereo not shown) [Glufosinate‐ammonium] ?
> 10 mM

###

Molecular target: Amaranthus palmeri cytosolic GS1.1 A309L
Test: GS enzyme inhibition assay, GS1.1 A309L
Settings: read-out: Glufosinate‐ammonium IC50
property.label: IC50 (µM)
Record the value in µM, omitting the unit from your answer.

Would you kindly share the measured IC50 for CP(=O)(O)CCC(N)C(=O)O (stereo not shown) [Glufosinate‐ammonium] ?
204

###

Target: Amaranthus palmeri cytosolic GS1.1 V193T
Assay: GS enzyme inhibition assay, GS1.1 V193T
Settings: read-out: Glufosinate‐ammonium IC50
property.label: IC50 (µM)
Record the value in µM, omitting the unit from your answer.

Would you kindly share the measured IC50 for CP(=O)(O)CCC(N)C(=O)O (stereo not shown) [Glufosinate‐ammonium] ?
69

###

Target: Amaranthus palmeri cytosolic GS1.1 D56S
Assay: GS enzyme inhibition assay, GS1.1 D56S
Conditions: read-out: Glufosinate‐ammonium IC50
Protocol: GS activity was determined spectrophotometrically following the Sigma‐Aldrich enzymatic assay protocol. The reaction couples the ATP‐dependent conversion of L‐glutamate and ammonium to L‐glutamine with pyruvate kinase (PK) and L‐lactate dehydrogenase (LDH), such that oxidation of β‐NADH to β‐NAD^+ can be monitored at 340 nm. Recombinant GS from A. palmeri was expressed in E. coli, purified by affinity chromatography, and quantified by the Bradford method using bovine serum albumin as standard. […]
property.label: IC50

Would you kindly share the measured IC50 for CP(=O)(O)CCC(N)C(=O)O (stereo not shown) [Glufosinate‐ammonium] ?
56 µM

###

Target: Amaranthus palmeri cytosolic GS1.1 G160T
Experiment: GS enzyme inhibition assay, GS1.1 G160T
Details: read-out: Glufosinate‐ammonium IC50
property.label: IC50 (µM)
Record the value in µM, omitting the unit from your answer.

Would you kindly share the measured IC50 for CP(=O)(O)CCC(N)C(=O)O (stereo not shown) [Glufosinate‐ammonium] ?
405

###

Biological target: Amaranthus palmeri cytosolic GS1.1 R311L
Test: GS enzyme inhibition assay, GS1.1 R311L
Conditions: read-out: Glufosinate‐ammonium IC50
property.label: IC50

Would you kindly share the measured IC50 for CP(=O)(O)CCC(N)C(=O)O (stereo not shown) [Glufosinate‐ammonium] ?
> 10 mM

###

Target: Amaranthus palmeri cytosolic GS1.1 H249L
Assay: GS enzyme inhibition assay, GS1.1 H249L
Conditions: read-out: Glufosinate‐ammonium IC50
property.label: IC50

Would you kindly share the measured IC50 for CP(=O)(O)CCC(N)C(=O)O (stereo not shown) [Glufosinate‐ammonium] ?
> 10 mM

###

Molecular target: Amaranthus palmeri cytosolic GS1.1 E192D
Assay: GS enzyme inhibition assay, GS1.1 E192D
Details: read-out: Glufosinate‐ammonium IC50
property.label: IC50

Query IC50 on Amaranthus palmeri cytosolic GS1.1 E192D for CP(=O)(O)CCC(N)C(=O)O (stereo not shown) [Glufosinate‐ammonium]
> 10 mM

###

Molecular target: Amaranthus palmeri cytosolic GS1.1 Y55L
Assay: GS enzyme inhibition assay, GS1.1 Y55L
Details: read-out: Glufosinate‐ammonium IC50
property.label: pIC50
# pIC50 is unitless: minus log10 of the molar concentration; print number only

Would you kindly share the measured pIC50 for CP(=O)(O)CCC(N)C(=O)O (stereo not shown) [Glufosinate‐ammonium] ?
4.77

###

Target: Amaranthus palmeri cytosolic GS1.1 E131D
Assay: GS enzyme inhibition assay, GS1.1 E131D
Settings: read-out: Glufosinate‐ammonium IC50
property.label: IC50

Would you kindly share the measured IC50 for CP(=O)(O)CCC(N)C(=O)O (stereo not shown) [Glufosinate‐ammonium] ?
> 10 mM

###

Target: Amaranthus palmeri cytosolic GS1.1 E297Q
Test: GS enzyme inhibition assay, GS1.1 E297Q
Assay type: biochemical
Conditions: read-out: Glufosinate‐ammonium IC50
property.label: IC50 (nM)
Record the value in nM, omitting the unit from your answer.

Would you kindly share the measured IC50 for CP(=O)(O)CCC(N)C(=O)O (stereo not shown) [Glufosinate‐ammonium] ?
600

###

Target: Amaranthus palmeri cytosolic GS1.1 WT
Test: GS enzyme inhibition assay, GS1.1 WT
Format: biochemical
Conditions: Table 3 panel, read-out: Glufosinate‐ammonium IC50
property.label: IC50 (µM)
Record the value in µM, omitting the unit from your answer.

Query IC50 on Amaranthus palmeri cytosolic GS1.1 WT for CP(=O)(O)CCC(N)C(=O)O (stereo not shown) [Glufosinate‐ammonium]
21.7

###

Target: Amaranthus palmeri cytosolic GS1.1 E131K
Assay: GS enzyme inhibition assay, GS1.1 E131K
Conditions: read-out: Glufosinate‐ammonium IC50
property.label: IC50

Would you kindly share the measured IC50 for CP(=O)(O)CCC(N)C(=O)O (stereo not shown) [Glufosinate‐ammonium] ?
> 10 mM

###

Molecular target: Amaranthus palmeri GS2.2 wild‐type (WT)
Experiment: GS enzyme inhibition assay, GS2.2 wild-type
Details: GS2.2 WT
property.label: IC50

Would you kindly share the measured IC50 for CP(=O)(O)CCC(N)C(=O)O (stereo not shown) [Glufosinate‐ammonium] ?
110 µM
